- Test system: LXF-289
- assay_notes: relative viability (nuclei count vs DMSO), 5 days (fraction); higher = more cells survive
- condition_info: first compound 50 µM
reported_property: relative viability

INSERT INTO measurements (compound, recorded_value) VALUES
  ('O=C(O)CCCCC(CCSCc1ccccc1)SCc1ccccc1 (centres undefined) [CPI-613] + N=C(N)NC(=N)NCCc1ccccc1 [Phenformin] (partner 250 µM)', 0.511),
  ('O=C(O)CCCCC(CCSCc1ccccc1)SCc1ccccc1 (centres undefined) [CPI-613] + Nc1ncn([C@H]2C[C@H](O)[C@@H](CO)O2)c(=O)n1 [Decitabine] (partner 2 µM)', 0.365),
  ('O=C(O)CCCCC(CCSCc1ccccc1)SCc1ccccc1 (centres undefined) [CPI-613] + Cc1nc(NC(=O)N2CCC[C@H]2C(N)=O)sc1-c1ccnc(C(C)(C)C(F)(F)F)c1 [Alpelisib] (partner 2 µM)', 0.988),
  ('O=C(O)CCCCC(CCSCc1ccccc1)SCc1ccccc1 (centres undefined) [CPI-613] + CC(C)C[C@H](NC(=O)[C@H](Cc1ccccc1)NC(=O)c1cnccn1)B(O)O [Bortezomib] (partner 0.002 µM)', 0.94);

* * *

Parameter relative viability: see the listing below.
- System: SK-MES-1
- assay_notes: relative viability (nuclei count vs DMSO), 5 days (fraction); higher = more cells survive
- condition_info: first compound 158.11 µM
reported_property: relative viability

INSERT INTO results (compound, reported_property, recorded_value) VALUES
  ('O=C(O)CCCCC(CCSCc1ccccc1)SCc1ccccc1 (centres undefined) [CPI-613] + CS(=O)(=O)CCNCc1ccc(-c2ccc3ncnc(Nc4ccc(OCc5cccc(F)c5)c(Cl)c4)c3c2)o1 [Lapatinib] (partner 2 µM)', 'relative viability', 0.408),
  ('O=C(O)CCCCC(CCSCc1ccccc1)SCc1ccccc1 (centres undefined) [CPI-613] + N=C(N)NC(=N)NCCc1ccccc1 [Phenformin] (partner 250 µM)', 'relative viability', 0.147),
  ('O=C(O)CCCCC(CCSCc1ccccc1)SCc1ccccc1 (centres undefined) [CPI-613] + CC(=O)Nc1cccc(-n2c(=O)n(C3CC3)c(=O)c3c(Nc4ccc(I)cc4F)n(C)c(=O)c(C)c32)c1 [Trametinib] (partner 0.02 µM)', 'relative viability', 0.201),
  ('O=C(O)CCCCC(CCSCc1ccccc1)SCc1ccccc1 (centres undefined) [CPI-613] + Nc1ncn([C@H]2C[C@H](O)[C@@H](CO)O2)c(=O)n1 [Decitabine] (partner 2 µM)', 'relative viability', 0.19);

* * *

- System: NCI-H1650
- assay_notes: relative viability (nuclei count vs DMSO), 5 days (fraction); higher = more cells survive
- condition_info: first compound 0.253 µM
Binary call on relative viability with cut-off 0.5: strictly below means 1, and equality or higher means 0.

INSERT INTO results (compound, system_tested, group_label) VALUES
  ('O=c1[nH]c2ccccc2n1C1CCN(CCCC(c2ccc(F)cc2)c2ccc(F)cc2)CC1 [Pimozide] + C[C@@H](Oc1cc(-c2cnn(C3CCNCC3)c2)cnc1N)c1c(Cl)ccc(F)c1Cl [Crizotinib] (partner 1 µM)', 'NCI-H1650', 0),
  ('Cc1cnc(-c2cnc(NCCNc3ccc(C#N)cn3)nc2-c2ccc(Cl)cc2Cl)[nH]1 + N=C(N)NC(=N)NCCc1ccccc1 [Phenformin] (partner 250 µM)', 'NCI-H1650', 1),
  ('O=c1[nH]c2ccccc2n1C1CCN(CCCC(c2ccc(F)cc2)c2ccc(F)cc2)CC1 [Pimozide] + Nc1nc2[nH]cc(CCc3ccc(C(=O)N[C@@H](CCC(=O)O)C(=O)O)cc3)c2c(=O)[nH]1 [Pemetrexed] (partner 0.2 µM)', 'NCI-H1650', 1),
  ('Cc1cnc(-c2cnc(NCCNc3ccc(C#N)cn3)nc2-c2ccc(Cl)cc2Cl)[nH]1 + C[C@@H](Oc1cc(-c2cnn(C3CCNCC3)c2)cnc1N)c1c(Cl)ccc(F)c1Cl [Crizotinib] (partner 1 µM)', 'NCI-H1650', 0);

Origin of the recorded values: the supplement of paper PMC10307832
